# measurement-target: Monoamine transporters; serotonin & dopamine (Homo sapiens) (UniProt P31645+Q01959)
# Sequence (P31645 whole entry, looked up): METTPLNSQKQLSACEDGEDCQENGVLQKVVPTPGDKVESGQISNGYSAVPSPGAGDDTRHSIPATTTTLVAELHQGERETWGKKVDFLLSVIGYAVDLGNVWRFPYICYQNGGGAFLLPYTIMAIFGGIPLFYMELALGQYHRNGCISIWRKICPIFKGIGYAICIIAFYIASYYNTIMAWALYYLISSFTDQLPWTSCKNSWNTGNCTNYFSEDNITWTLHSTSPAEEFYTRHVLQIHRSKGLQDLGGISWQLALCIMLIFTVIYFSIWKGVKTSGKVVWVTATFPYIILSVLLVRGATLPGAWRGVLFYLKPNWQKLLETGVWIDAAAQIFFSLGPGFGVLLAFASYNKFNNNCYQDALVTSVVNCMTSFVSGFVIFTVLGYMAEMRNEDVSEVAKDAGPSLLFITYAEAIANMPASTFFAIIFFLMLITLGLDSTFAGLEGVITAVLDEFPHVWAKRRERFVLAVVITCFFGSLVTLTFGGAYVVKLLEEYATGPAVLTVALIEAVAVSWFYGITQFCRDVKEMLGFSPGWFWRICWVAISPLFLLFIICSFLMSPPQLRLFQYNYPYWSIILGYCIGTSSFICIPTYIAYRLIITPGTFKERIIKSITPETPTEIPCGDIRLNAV
# Sequence (Q01959 whole entry, looked up): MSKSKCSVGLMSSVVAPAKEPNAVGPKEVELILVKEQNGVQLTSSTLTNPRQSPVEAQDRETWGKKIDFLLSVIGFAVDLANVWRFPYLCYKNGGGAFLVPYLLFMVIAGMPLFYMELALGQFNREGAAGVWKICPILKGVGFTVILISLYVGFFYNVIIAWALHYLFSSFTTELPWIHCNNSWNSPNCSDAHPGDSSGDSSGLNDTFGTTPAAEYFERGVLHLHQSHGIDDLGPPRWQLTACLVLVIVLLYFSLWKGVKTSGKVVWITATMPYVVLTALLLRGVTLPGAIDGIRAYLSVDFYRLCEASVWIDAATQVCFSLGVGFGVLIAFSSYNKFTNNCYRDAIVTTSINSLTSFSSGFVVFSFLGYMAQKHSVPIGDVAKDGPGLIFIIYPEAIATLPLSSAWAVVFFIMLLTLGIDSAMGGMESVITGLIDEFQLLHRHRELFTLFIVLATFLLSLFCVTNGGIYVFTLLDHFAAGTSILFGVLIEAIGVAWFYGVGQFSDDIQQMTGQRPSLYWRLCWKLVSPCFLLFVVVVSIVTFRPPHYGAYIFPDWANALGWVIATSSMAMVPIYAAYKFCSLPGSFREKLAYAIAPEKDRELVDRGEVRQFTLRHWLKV
# assay-details: Ratio of inhibition of serotonin uptake to inhibition of dopamine uptake
# Type: protein assay
recorded-metric: Ratio
Numbers only.

Guide cases for Ratio, answers given:
CC(C)N[C@@H]1C[C@@H](c2ccc(Cl)c(Cl)c2)c2ccccc21    4.7
CC(C)N(C)[C@@H]1C[C@@H](c2ccc(Cl)c(Cl)c2)c2ccccc21    7.9

Hey, quick one: what's Ratio for each of these?
1. CCN(C)[C@H]1C[C@@H](c2ccc(Cl)c(Cl)c2)c2ccccc21 (relative stereo)
2. CN(C)[C@H]1C[C@@H](c2ccc(Cl)c(Cl)c2)c2ccccc21 (relative stereo)
3. CCN[C@H]1C[C@@H](c2ccc(Cl)c(Cl)c2)c2ccccc21
4. CCCN[C@@H]1C[C@@H](c2ccc(Cl)c(Cl)c2)c2ccccc21 (relative stereo)
5. CCCN[C@H]1C[C@@H](c2ccc(Cl)c(Cl)c2)c2ccccc21 (relative stereo)

Response:
1. 0.14
2. 0.01
3. 0.02
4. 9.1
5. 2.1

* * *

# measurement-target: Sodium-dependent serotonin transporter (Homo sapiens, UniProt P31645)
# Sequence (P31645 whole entry): as the sequence (P31645 whole entry, looked up) above
Task for the reader: assign each of the following molecules its reported pKi.
Give bare numbers, as −log10 of the molar value.

CN(Cc1ccccc1)[C@@H]1C[C@@H](c2ccc(Cl)c(Cl)c2)c2ccccc21 (relative stereo)    6.74
CN(C)[C@@H]1C[C@@H](c2ccc(Cl)c(Cl)c2)c2ccccc21 (stereo in doubt; (-))    8.44
CC(C)N(C)[C@@H]1C[C@@H](c2ccc(Cl)c(Cl)c2)c2ccccc21    7.36
CCCN[C@@H]1C[C@@H](c2ccc(Cl)c(Cl)c2)c2ccccc21 (relative stereo)    6.89
CCN[C@@H]1C[C@@H](c2ccc(Cl)c(Cl)c2)c2ccccc21 (relative stereo)    8.70

Hey, quick one: what's pKi for each of these?
1. CN(Cc1ccccc1)[C@H]1C[C@@H](c2ccc(Cl)c(Cl)c2)c2ccccc21 (relative stereo)
2. CC(C)N[C@@H]1C[C@@H](c2ccc(Cl)c(Cl)c2)c2ccccc21
3. CC(C)(C)N[C@@H]1C[C@@H](c2ccc(Cl)c(Cl)c2)c2ccccc21 (relative stereo)

Response:
[6.52, 7.03, 6.13]

* * *

# measurement-target: Sodium-dependent dopamine transporter (Homo sapiens)
# assay-details: Inhibition of reuptake of [3H]DA (20 nM) by dopamine transporter
Task for the reader: assign each of the following compounds its reported pIC50.
Answers are plain numbers, as −log10 of the molar value.

Guide cases for pIC50, answers given:
CC(C)(C)N[C@H]1C[C@@H](c2ccc(Cl)c(Cl)c2)c2ccccc21 (relative stereo)    5.82
CCCN[C@H]1C[C@@H](c2ccc(Cl)c(Cl)c2)c2ccccc21 (relative stereo)    6.21
Clc1ccc([C@@H]2C[C@@H](NCc3ccccc3)c3ccccc32)cc1Cl (relative stereo)    6.89

Per the record, CC(C)N[C@H]1C[C@@H](c2ccc(Cl)c(Cl)c2)c2ccccc21 (relative stereo) has pIC50 of 5.85

* * *

Task for the reader: assign each of the following compounds its reported IC50.
# measurement-target: Sodium-dependent dopamine transporter (Homo sapiens, UniProt Q01959)
# Sequence (Q01959 whole entry): as the sequence (Q01959 whole entry, looked up) above
# assay-details: Inhibition of reuptake of [3H]DA (20 nM) by dopamine transporter
Numbers only, in nM.

Guide cases for IC50, answers given:
CCN(C)[C@@H]1C[C@@H](c2ccc(Cl)c(Cl)c2)c2ccccc21 (relative stereo)    270
CC(C)N(C)[C@H]1C[C@@H](c2ccc(Cl)c(Cl)c2)c2ccccc21    960
CC(C)N[C@@H]1C[C@@H](c2ccc(Cl)c(Cl)c2)c2ccccc21    51
CN(C)[C@@H]1C[C@@H](c2ccc(Cl)c(Cl)c2)c2ccccc21 (stereo in doubt; (-))    650
CCCN(C)[C@H]1C[C@@H](c2ccc(Cl)c(Cl)c2)c2ccccc21 (relative stereo)    1000
CC(C)N(C)[C@@H]1C[C@@H](c2ccc(Cl)c(Cl)c2)c2ccccc21    190
CN([C@@H]1C[C@@H](c2ccc(Cl)c(Cl)c2)c2ccccc21)C(C)(C)C (relative stereo)    2700

Next compound, please.
Per the record, Clc1ccc([C@@H]2C[C@H](NCc3ccccc3)c3ccccc32)cc1Cl (relative stereo) has IC50 of 5300

* * *

Task for the reader: assign each of the following molecules its reported log10 of IC50.
# measurement-target: Sodium-dependent noradrenaline transporter (Homo sapiens, UniProt P23975)
# Sequence (P23975 whole entry): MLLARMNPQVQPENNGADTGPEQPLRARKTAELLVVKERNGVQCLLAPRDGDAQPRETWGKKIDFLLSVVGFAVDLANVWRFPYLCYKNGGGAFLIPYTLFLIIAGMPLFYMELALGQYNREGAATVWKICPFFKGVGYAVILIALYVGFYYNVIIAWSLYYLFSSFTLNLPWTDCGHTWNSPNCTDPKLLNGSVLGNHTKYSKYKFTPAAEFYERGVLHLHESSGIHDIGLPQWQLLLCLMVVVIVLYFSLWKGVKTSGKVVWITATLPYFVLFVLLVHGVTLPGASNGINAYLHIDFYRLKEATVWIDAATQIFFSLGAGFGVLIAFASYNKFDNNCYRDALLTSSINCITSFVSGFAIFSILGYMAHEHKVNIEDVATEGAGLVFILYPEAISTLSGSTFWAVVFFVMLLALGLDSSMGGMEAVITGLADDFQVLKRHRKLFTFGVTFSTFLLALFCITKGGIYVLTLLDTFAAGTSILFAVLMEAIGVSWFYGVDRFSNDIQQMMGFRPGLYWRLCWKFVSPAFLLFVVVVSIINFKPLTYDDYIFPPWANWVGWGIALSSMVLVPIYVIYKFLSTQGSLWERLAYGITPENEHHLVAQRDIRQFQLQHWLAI
# assay-details: Inhibition of reuptake of [3H]-NE (20 nM) by norepinephrine transporter
Please interpret these as log10 of IC50 where IC50 is in nM.

Guide cases for log10 of IC50, answers given:
CN(C)[C@@H]1C[C@@H](c2ccc(Cl)c(Cl)c2)c2ccccc21 (stereo in doubt; (+))    1.32
CCCN(C)[C@@H]1C[C@@H](c2ccc(Cl)c(Cl)c2)c2ccccc21 (relative stereo)    2.81

Hey, quick one: what's log10 of IC50 for each of these?
1. CN(C)[C@@H]1C[C@@H](c2ccc(Cl)c(Cl)c2)c2ccccc21 (stereo in doubt; (-))
2. CCN(C)[C@@H]1C[C@@H](c2ccc(Cl)c(Cl)c2)c2ccccc21 (relative stereo)
3. CC(C)N(C)[C@H]1C[C@@H](c2ccc(Cl)c(Cl)c2)c2ccccc21
4. CCCN[C@@H]1C[C@@H](c2ccc(Cl)c(Cl)c2)c2ccccc21 (relative stereo)

Response:
1: 2.11; 2: 2.18; 3: 3.26; 4: 2.11

Hey, quick one: what's log10 of IC50 for each of these?
1. CC(C)N[C@@H]1C[C@@H](c2ccc(Cl)c(Cl)c2)c2ccccc21
2. CC(C)N(C)[C@@H]1C[C@@H](c2ccc(Cl)c(Cl)c2)c2ccccc21
3. Clc1ccc([C@@H]2C[C@@H](NCc3ccccc3)c3ccccc32)cc1Cl (relative stereo)
4. CC(C)N[C@H]1C[C@@H](c2ccc(Cl)c(Cl)c2)c2ccccc21 (relative stereo)

Response:
[1.88, 2.62, 3.41, 3.18]

Hey, quick one: what's log10 of IC50 for each of these?
1. CC(C)(C)N[C@H]1C[C@@H](c2ccc(Cl)c(Cl)c2)c2ccccc21 (relative stereo)
2. CC(C)(C)N[C@@H]1C[C@@H](c2ccc(Cl)c(Cl)c2)c2ccccc21 (relative stereo)
3. CN(Cc1ccccc1)[C@@H]1C[C@@H](c2ccc(Cl)c(Cl)c2)c2ccccc21 (relative stereo)
4. CCCN[C@H]1C[C@@H](c2ccc(Cl)c(Cl)c2)c2ccccc21 (relative stereo)
5. CN(C)[C@H]1C[C@@H](c2ccc(Cl)c(Cl)c2)c2ccccc21 (relative stereo)
6. CCN(C)[C@H]1C[C@@H](c2ccc(Cl)c(Cl)c2)c2ccccc21 (relative stereo)
7. CN([C@@H]1C[C@@H](c2ccc(Cl)c(Cl)c2)c2ccccc21)C(C)(C)C (relative stereo)
8. CN(C)[C@@H]1C[C@@H](c2ccc(Cl)c(Cl)c2)c2ccccc21.O=C(O)/C=C\C(=O)O (relative stereo)

Response:
1: 3.26; 2: 2.49; 3: 3.20; 4: 2.80; 5: 1.93; 6: 3.64; 7: 3.00; 8: 1.53

* * *

# measurement-target: Sodium-dependent dopamine transporter (Homo sapiens, UniProt Q01959)
Task for the reader: assign each of the following compounds its reported pKi.
Give bare numbers, as −log10 of the molar value.

CN(C)[C@@H]1C[C@@H](c2ccc(Cl)c(Cl)c2)c2ccccc21 (stereo in doubt; (+))    8.06
CCCN[C@@H]1C[C@@H](c2ccc(Cl)c(Cl)c2)c2ccccc21 (relative stereo)    6.66
CC(C)N[C@@H]1C[C@@H](c2ccc(Cl)c(Cl)c2)c2ccccc21    7.49
CC(C)N[C@H]1C[C@@H](c2ccc(Cl)c(Cl)c2)c2ccccc21 (relative stereo)    6.35
CN(C)[C@@H]1C[C@@H](c2ccc(Cl)c(Cl)c2)c2ccccc21 (stereo in doubt; (-))    7.42
CC(C)(C)N[C@@H]1C[C@@H](c2ccc(Cl)c(Cl)c2)c2ccccc21 (relative stereo)    6.89

Hey, quick one: what's pKi for each of these?
1. CCN[C@@H]1C[C@@H](c2ccc(Cl)c(Cl)c2)c2ccccc21 (relative stereo)
2. CCCN(C)[C@@H]1C[C@@H](c2ccc(Cl)c(Cl)c2)c2ccccc21 (relative stereo)
3. CN(Cc1ccccc1)[C@@H]1C[C@@H](c2ccc(Cl)c(Cl)c2)c2ccccc21 (relative stereo)
4. CC(C)N(C)[C@@H]1C[C@@H](c2ccc(Cl)c(Cl)c2)c2ccccc21
5. Clc1ccc([C@@H]2C[C@H](NCc3ccccc3)c3ccccc32)cc1Cl (relative stereo)
6. CCCN[C@H]1C[C@@H](c2ccc(Cl)c(Cl)c2)c2ccccc21 (relative stereo)
7. CN([C@H]1C[C@@H](c2ccc(Cl)c(Cl)c2)c2ccccc21)C(C)(C)C (relative stereo)
8. CCN(C)[C@@H]1C[C@@H](c2ccc(Cl)c(Cl)c2)c2ccccc21 (relative stereo)

Response:
[8.09, 6.60, 6.92, 6.74, 5.96, 6.55, 5.55, 7.41]

The measurements presented in this section are drawn from ChEMBL document CHEMBL1133565.
